System: T84 (Colorectal Carcinoma)
protocolNotes: combination Emax (second highest fraction inhibited in the dose matrix, 72 h); higher = more inhibition; extreme values may be limits of the assay

# molecule, combination Emax
measured = [
    ("CCN(CCO)CCCOc1ccc2c(Nc3cc(CC(=O)Nc4cccc(F)c4)[nH]n3)ncnc2c1 [AZD2811] + C=CCn1c(=O)c2cnc(Nc3ccc(N4CCN(C)CC4)cc3)nc2n1-c1cccc(C(C)(C)O)n1 [AZD1775] (first compound max 1 µM, partner max 1 µM)", 0.645),
    ("CN(CCO)CC[C@H](CSc1ccccc1)Nc1ccc(S(=O)(=O)NC(=O)c2ccc(N3CCC([C@@H](O)c4ccccc4-c4ccc(Cl)cc4)CC3)cc2)cc1S(=O)(=O)C(F)(F)F [AZD4320] + CCN(CCO)CCCOc1ccc2c(Nc3cc(CC(=O)Nc4cccc(F)c4)[nH]n3)ncnc2c1 [AZD2811] (first compound max 1 µM, 7x7, partner max 1 µM)", 0.0513),
    ("CC1(C)CCC(CN2CCN(c3ccc(C(=O)NS(=O)(=O)c4ccc(NCC5CCOCC5)c([N+](=O)[O-])c4)c(Oc4cnc5[nH]ccc5c4)c3)CC2)=C(c2ccc(Cl)cc2)C1 [Venetoclax] + C1CN(CCC1(C(=O)N[C@@H](CCO)C2=CC=C(C=C2)Cl)N)C3=NC=NC4=C3C=CN4 [Capivasertib] (first compound max 1 µM, 7x7, partner max 3 µM)", 0.168),
]
